# System: Plasmodium falciparum
# Test protocol: NOVARTIS: Inhibition of Plasmodium falciparum 3D7 (drug-susceptible) proliferation in erythrocyte-based infection assay
# Assay type: functional, organism-based
# Experimental setup: Plasmodium falciparum, 3D7
Experimental readout: EC50 (nM)
Numbers only, in nM.

Recorded results for 6 compounds are shown here.
> print(dat)
                                   compound           assay.target  measurement.unit  measured.number
1  CCN(CC)c1ccc(C=C(C#N)c2nc3ccccc3[nH]2)o1  Plasmodium falciparum                nM             3350
2  CC[N+](C)(CC)CCSc1nc2ccccc2c(=S)n1-c1ccc(OC)cc1  Plasmodium falciparum                nM              285
3        CC(C)C(=O)NCCCCNc1ccnc2cc(Cl)ccc12  Plasmodium falciparum                nM             1600
4        Cc1occc1C(=O)NN=C/C(Cl)=C/c1ccccc1  Plasmodium falciparum                nM              255
5       Cc1ccccc1CN1CCN(CC=Cc2ccccc2)CCC1=O  Plasmodium falciparum                nM             1430
6  CCCCCN(C(=O)c1ccc(C)cc1)C(CC)c1nc2ccccc2c(=O)n1-c1ccccc1OC (stereo not drawn)  Plasmodium falciparum                nM              893

Each compound below has a reported value. Please supply its EC50.
1. CCOc1ccc(Nc2ccnc3cc(Cl)ccc23)cc1
2. N#Cc1cc2[nH]c3ccccc3c2n(-c2ccc([N+](=O)[O-])cc2)c1=N
3. Cc1ccc(NC(=O)C2CSC(c3cccc(F)c3)N2C(=O)c2ccc(C(C)(C)C)cc2)cc1 (stereo not drawn)

Response:
[956, 530, 449]

Each compound below has a reported value. Please supply its EC50.
1. COc1ccc(/C=C/c2ccc3ccccc3[n+]2C)cc1
2. Cc1nc2c(=O)n(C)c(=O)nc-2n(C)n1
3. CCOc1ccc(NC2=C(N3CCOCC3)C(=O)c3ccccc3C2=O)cc1
4. CCOC(=O)C1=C(C)NC2=C(C(=O)CC(c3ccc(OC)c(OC)c3)C2)C1c1c(F)cccc1Cl (stereo not drawn)
5. CCc1c(C)c(C#N)c2nc3ccccc3n2c1NCc1ccco1
6. Cc1onc(O)c1CC(N)C(=O)O (stereo not drawn)

Response:
133
593
3660
76.7
271
158

Each compound below has a reported value. Please supply its EC50.
1. Cc1ccccc1Nc1nc(NCCO)c2ccccc2n1
2. Clc1cccc(CNC2CCN(CCc3ccccc3)CC2)c1

Response:
[1710, 298]

* * *

# Tested on: Plasmodium falciparum
# Test protocol: NOVARTIS: Inhibition of Plasmodium falciparum W2 (drug-resistant) proliferation in erythrocyte-based infection assay
# Type: functional, organism-based
# Experimental setup: Plasmodium falciparum, W2; read-out: EC50
EC50 strictly under 400 nM means class 1; at 400 nM or over means class 0.

Example results:
> print(dat)
                                   compound  classification
1  COc1ccc(-n2nc3c(c2NC(=O)C=Cc2cc(OC)c(OC)c(OC)c2)CSC3)cc1         class 1
2  CSc1cccc(NC(=O)C2C3C=CC4(O3)C2C(=O)N(C2CC2)C4C(=O)NC2CCCCC2)c1 (stereo not given)         class 1

Query: Criterion: EC50 strictly below 400 nM. Is it met by Oc1ccc(-c2cnccn2)cc1CNC1CCN(Cc2ccccc2)CC1 ?
Response: class 1

Query: Criterion: EC50 strictly below 400 nM. Is it met by COc1ccc([C@@H]2C[C@H](OC(=O)c3ccc4c(c3)OCO4)C(=O)N2C)cc1 ?
Response: class 0

Query: Criterion: EC50 strictly below 400 nM. Is it met by O=C(c1ccc([N+](=O)[O-])cc1)c1ccc(Cl)c(Cl)c1 ?
Response: class 0

Query: Criterion: EC50 strictly below 400 nM. Is it met by C[C@@H]1CC[C@H]2[C@@H](C)C(=O)O[C@@H]3O[C@@]4(C)CC[C@@H]1[C@]32OO4 [ARTEMISININ] ?
Response: class 1

Query: Criterion: EC50 strictly below 400 nM. Is it met by Cn1nc(C(F)(F)F)c(-c2ccc(Br)cc2)c1NC(=O)Nc1ccc(F)cc1F ?
Response: class 1

Query: Criterion: EC50 strictly below 400 nM. Is it met by CCOC(=O)CC(C)(O)P(=O)(OC)OC (stereo not given) ?
Response: class 0

Query: Criterion: EC50 strictly below 400 nM. Is it met by O=C(Cn1c2ccccc2c(=O)c2cc([N+](=O)[O-])ccc21)Nc1cccc(Cl)c1 ?
Response: class 0

Query: Criterion: EC50 strictly below 400 nM. Is it met by O=[N+]([O-])c1ccc(-c2ccc(C=NNc3ccccn3)o2)cc1 ?
Response: class 0

Recorded values, source ChEMBL document CHEMBL1156829.
